# Assay Target: Nuclear receptor subfamily 1 group I member 2 (Rattus norvegicus) (UniProt Q9R1A7)
# Sequence (Q9R1A7 whole entry, looked up): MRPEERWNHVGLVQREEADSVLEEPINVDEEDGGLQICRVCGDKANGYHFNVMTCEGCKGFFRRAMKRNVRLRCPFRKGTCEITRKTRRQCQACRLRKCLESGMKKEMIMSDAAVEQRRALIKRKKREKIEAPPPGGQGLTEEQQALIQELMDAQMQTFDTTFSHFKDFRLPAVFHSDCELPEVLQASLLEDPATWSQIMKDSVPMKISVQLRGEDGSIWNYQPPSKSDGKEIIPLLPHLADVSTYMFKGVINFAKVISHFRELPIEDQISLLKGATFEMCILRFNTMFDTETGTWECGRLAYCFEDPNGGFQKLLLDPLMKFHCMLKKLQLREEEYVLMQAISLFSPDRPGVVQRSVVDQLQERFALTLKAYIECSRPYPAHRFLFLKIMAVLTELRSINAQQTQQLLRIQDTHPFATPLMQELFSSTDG
# Assay Text: Rat pregnane X receptor (rPXR) activation by small molecules, qHTS assay (AID 1346983); further: on the % scale 0 is the no-effect control and ±100 the full control effect; nearly all actives have a fitted effect of over 20% in size
# Assay Setup: rPXR luciferase reporter cells, One-Glo luminescence, 24 h; active compounds read high
Inconclusive results are not listed.
Assignment: determine reported max activation for the given compounds.
One number for each entry, in %.

Observe how each entry below is paired with its result.
* CC(C)=C[C@@H]1[C@@H](C(=O)OCc2coc(Cc3ccccc3)c2)C1(C)C | 12.4
* CC(NC(C)(C)C)C(=O)c1cccc(Cl)c1 (stereo not drawn) | -1.59
* C#CCN(C)[C@H](C)Cc1ccccc1 | -1.33
* Clc1ccc(Cl)cc1 | -1.7
* O=[N+]([O-])c1ccccc1 | 7.19

Count: 3. Required value per item: max activation.
1. Nc1ccccc1C(=O)O
2. CN(C)[C@@H]1C(=O)C(C(N)=O)=C(O)[C@@]2(O)C(=O)C3=C(O)c4c(O)cccc4[C@@](C)(O)[C@H]3C[C@@H]12
3. O=[N+]([O-])c1ccc([As](=O)(O)O)cc1

1. -2.88
2. -1.09
3. -0.802

====

# Assay Text: qHTS assay to test for compound auto fluorescence at 535 nm (green) in HepG2 cell free culture (AID 720686); further: on the % scale 0 is the no-effect control and ±100 the full control effect
# Assay Setup: Cell-free medium, green autofluorescence 485/535 nm; series mostly up to 91.3 µM
The source made the active and inactive calls. Calls come from the whole dose curve; as a rule, active = well fitted curve in the direction sought with a large enough effect in the repeat runs; inconclusive = weak or mixed curves; inactive = flat fitted curve, though single readings scatter.
Measurement Type: outcome

Observe how each entry below is paired with its result.
* CC1C=[C-]C=C1.[C-]#[O+].[C-]#[O+].[C-]#[O+].[Mn] | inactive
* c1ccc2c(c1)oc1ccccc12 | inactive
* CC(C)(C)OOC(=O)c1ccccc1 | inactive
* C#CC(C)(C)NC(=O)c1cc(Cl)cc(Cl)c1 | inactive
* CCC12COCN1COC2 | inactive
* COC(=O)NS(=O)(=O)c1ccc(N)cc1 | inactive

Count: 6. Required value per item: outcome.
1. Oc1ccccc1Cl
2. O=c1n(Cl)c(=O)n(Cl)c(=O)n1Cl
3. CC(Oc1ccc(Cl)cc1Cl)C(=O)O (stereo not given)
4. BrCCBr
5. CC(C)OC(=O)Nc1ccccc1
6. CCCCCCCCCCCC#N

1: inactive; 2: inactive; 3: inactive; 4: inactive; 5: inactive; 6: inactive

====

# Assay Text: qHTS assay to identify small molecule antagonists of the farnesoid-X-receptor (FXR) signaling pathway - cell viability counter screen (AID 743221); further: on the % scale 0 is the no-effect control and ±100 the full control effect; nearly all actives have a fitted effect of over 50% in size
# Assay Setup: FXR-bla HEK293T viability, CellTiter-Glo luminescence, 16 h; series mostly up to 62.6 µM
Records with an inconclusive call do not appear. Active and inactive are the calls of the source. Calls come from the whole dose curve; as a rule, active = well fitted cell-killing curve with a large enough effect in the repeat runs (not every such curve was filed as active); inconclusive = weak or mixed curves, or effect the other way; inactive = no such curve, though single readings can be large or run the other way.
Measurement Type: outcome

Observe how each entry below is paired with its result.
• CCCCCOC(=O)c1ccccc1C(=O)OCCCCC = inactive
• CON(C)C(=O)Nc1ccc(Cl)c(Cl)c1 = inactive
• [N-]=[N+]=[N-] = inactive
• O=NN1CCCCCCC1 = inactive

Count: 2. Required value per item: outcome.
1. CC(C)=C[C@@H]1[C@@H](C(=O)OCc2coc(Cc3ccccc3)c2)C1(C)C
2. O=c1[nH]c2ccccc2c(=O)o1

inactive
inactive

Count: 4. Required value per item: outcome.
1. Nc1ccccc1C(=O)O
2. c1cc2c3c(cccc3c1)CC2
3. Clc1ccccc1Cl
4. O=S(=O)(c1ccc(O)cc1)c1ccc(O)cc1

1. inactive
2. inactive
3. inactive
4. inactive

Count: 2. Required value per item: outcome.
1. C=C(C)CCl
2. CC1C=[C-]C=C1.[C-]#[O+].[C-]#[O+].[C-]#[O+].[Mn]

1. inactive
2. inactive

====

# Assay Text: Caspase-3/7 induction in CHO-K1 cells by small molecules, qHTS assay (AID 1346980); further: on the % scale 0 is the no-effect control and ±100 the full control effect; nearly all actives have a fitted effect of over 15% in size
# Assay Setup: CHO-K1 caspase-3/7 induction, Caspase-Glo luminescence, 17 h; series mostly up to 92.4 µM
Calls of active or inactive are those of the source. Calls come from the whole dose curve; as a rule, active = well fitted activation curve with a large enough effect in the repeat runs; inconclusive = weak or mixed curves; inactive = flat fitted curve, though single readings scatter.
Measurement Type: outcome

- CCC12COCN1COC2: inactive
- C=CCO: inactive
- C#CCN(C)[C@H](C)Cc1ccccc1: inactive
- CN(C)N=O: inactive
- CC(C)(C)OOC(C)(C)C: inactive

Count: 5. Required value per item: outcome.
1. CCc1cccc(C)c1N(C(=O)CCl)C(C)COC (stereo not given)
2. Cc1cc(-c2cc(C)c(N)c(C)c2)cc(C)c1N
3. CC1OC(C)OC(C)O1 (stereo not given)
4. O=c1ccc(=O)[nH][nH]1
5. CC(=O)C=C(C)C

["inactive", "inactive", "inactive", "inactive", "inactive"]

Count: 7. Required value per item: outcome.
1. CC(Br)C(=O)O (stereo not given)
2. CCCCCCCCCl
3. c1ccc2c(c1)oc1ccccc12
4. CC(NC(C)(C)C)C(=O)c1cccc(Cl)c1 (stereo not given)
5. OC(O)C(Cl)(Cl)Cl
6. C1CC2OC2CC1C1CO1 (stereo not given)
7. O=[N+]([O-])c1ccccc1

["inactive", "inactive", "inactive", "inactive", "inactive", "inactive", "inactive"]

====

# Assay Text: qHTS assay to identify small molecule antagonists of the TGF-beta/Smad signaling pathway - cell viability counter screen (AID 1346824); further: on the % scale 0 is the no-effect control and ±100 the full control effect; nearly all actives have a fitted effect of over 50% in size
# Assay Setup: SBE-bla HEK293T viability, CellTiter-Glo luminescence; series mostly up to 76.8 µM
Results filed as inconclusive are left out. Activity calls are given as the source filed them. Calls follow the shape of the dose curve; as a rule, active = well fitted cell-killing curve with a large enough effect in the repeat runs; inconclusive = weak or mixed curves; inactive = flat fitted curve, though single readings scatter.
Measurement Type: outcome

- NCC(O)c1ccc(O)cc1 (stereo not drawn): inactive
- O=S(=O)(c1ccc(O)cc1)c1ccc(O)cc1: inactive
- c1ccc(OP(Oc2ccccc2)Oc2ccccc2)cc1: inactive

====

# Assay Text: qHTS assay to identify small molecule agonists of the endoplasmic reticulum stress response signaling pathway (AID 1159516); further: on the % scale 0 is the no-effect control and ±100 the full control effect
# Assay Setup: ESRE-bla HeLa, ER stress beta-lactamase reporter, 5 h; series mostly up to 61 µM
Inconclusive results are not listed. Calls of active or inactive are those of the source. Calls follow the shape of the dose curve; as a rule, active = well fitted activation curve with a large enough effect in the signal ratio in the repeat runs (not every such curve was filed as active); inconclusive = weak or mixed curves, or effect the other way; inactive = flat fitted curve, though single readings scatter; the % refers to the signal ratio.
Measurement Type: outcome

- CC(Br)C(=O)O (configuration not stated): inactive
- c1cc2c3c(cccc3c1)CC2: inactive
- O=[N+]([O-])c1ccc(Oc2ccc(Cl)cc2Cl)cc1: inactive
- CC(C)(C)OOC(=O)c1ccccc1: inactive
- C1CC2OC2CC1C1CO1 (configuration not stated): inactive
- CC(C)C1(C)N=C(c2nc3ccccc3cc2C(=O)O)NC1=O (configuration not stated): inactive

Query compound follows.
What the record says about CCCCN(CCCC)SN(C)C(=O)Oc1cccc2c1OC(C)(C)C2 : outcome is inactive

====

# Assay Target: Progesterone receptor (Homo sapiens) (UniProt P06401)
# Sequence (P06401 whole entry, looked up): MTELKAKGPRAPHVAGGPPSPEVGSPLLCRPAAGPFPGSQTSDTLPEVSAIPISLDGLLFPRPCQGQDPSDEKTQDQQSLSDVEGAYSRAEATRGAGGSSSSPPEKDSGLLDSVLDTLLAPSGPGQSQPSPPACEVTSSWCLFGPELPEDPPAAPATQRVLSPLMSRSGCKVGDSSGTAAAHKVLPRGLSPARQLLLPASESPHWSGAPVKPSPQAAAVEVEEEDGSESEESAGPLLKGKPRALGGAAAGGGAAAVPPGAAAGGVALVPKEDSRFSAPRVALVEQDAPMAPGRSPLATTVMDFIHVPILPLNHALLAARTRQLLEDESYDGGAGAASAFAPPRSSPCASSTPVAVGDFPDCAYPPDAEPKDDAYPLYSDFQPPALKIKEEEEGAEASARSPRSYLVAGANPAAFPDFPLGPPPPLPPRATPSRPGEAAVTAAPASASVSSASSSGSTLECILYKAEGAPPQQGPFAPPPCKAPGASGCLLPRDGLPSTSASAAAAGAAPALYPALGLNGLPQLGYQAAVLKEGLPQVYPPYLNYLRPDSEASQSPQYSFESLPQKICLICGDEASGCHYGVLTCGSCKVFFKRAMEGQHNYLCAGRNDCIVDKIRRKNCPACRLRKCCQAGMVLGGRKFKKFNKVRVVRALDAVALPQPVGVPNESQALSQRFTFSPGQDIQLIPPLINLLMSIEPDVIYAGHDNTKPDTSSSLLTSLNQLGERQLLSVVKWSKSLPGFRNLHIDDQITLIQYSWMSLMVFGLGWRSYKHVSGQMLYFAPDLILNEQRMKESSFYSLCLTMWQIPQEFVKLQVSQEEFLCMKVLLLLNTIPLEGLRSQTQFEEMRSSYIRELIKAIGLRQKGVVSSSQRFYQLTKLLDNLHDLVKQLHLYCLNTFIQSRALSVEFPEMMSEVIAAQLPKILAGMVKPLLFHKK
# Assay Text: qHTS assay to identify small molecule antagonists of the progesterone receptor (PR) signaling pathway (AID 1346795); further: on the % scale 0 is the no-effect control and ±100 the full control effect
# Assay Setup: PR-UAS-bla HEK293T, beta-lactamase FRET ratio, 16 h; series mostly up to 92.4 µM
Results filed as inconclusive are left out. Active and inactive are the calls of the source. Calls come from the whole dose curve; as a rule, active = well fitted inhibition curve with a large enough effect in the signal ratio in the repeat runs (not every such curve was filed as active); inconclusive = weak or mixed curves; inactive = flat fitted curve, though single readings scatter; the % refers to the signal ratio.
Use one of these outcomes when replying: active, inactive

Completed entries (count: 5):
• COc1ccc2c3c1O[C@H]1[C@@H](O)C=C[C@H]4[C@@H](C2)N(C)CC[C@@]341 = inactive
• CC1C=[C-]C=C1.[C-]#[O+].[C-]#[O+].[C-]#[O+].[Mn] = inactive
• C#CCN(C)[C@H](C)Cc1ccccc1 = inactive
• NCC(O)c1ccc(O)cc1 (stereo unspecified) = inactive
• Cc1cc(Cl)ccc1O = inactive

Give the logged outcome of this assay for the following compound: Clc1cccc(Cl)c1Cl inactive

Give the logged outcome of this assay for the following compound: CC(C)(C)OOC(C)(C)C inactive

Give the logged outcome of this assay for the following compound: Clc1ccc(Cl)cc1 inactive

====

# Assay Text: qHTS assay for small molecule agonists of the antioxidant response element (ARE) signaling pathway (AID 743202); on activation: on the % scale 0 is the no-effect control and ±100 the full control effect
# Assay Setup: HepG2 ARE-bla reporter, beta-lactamase FRET, 16 h; series mostly up to 73.3 µM
Inconclusive results are not listed. Active and inactive are the calls of the source. Calls follow the shape of the dose curve; as a rule, active = well fitted activation curve with a large enough effect in the signal ratio in the repeat runs (not every such curve was filed as active); inconclusive = weak or mixed curves, or effect the other way; inactive = no such curve, though single readings can be large or run the other way; the % refers to the signal ratio.
Use one of these outcomes when replying: 1.0 for active, 0.0 for inactive

Completed entries (count: 5):
* C=C(C)CCl | 0.0
* CC(C)C1(C)N=C(c2nc3ccccc3cc2C(=O)O)NC1=O (centres undefined) | 0.0
* Cc1ccc(N)cc1Cl | 0.0
* O=S(=O)(c1ccc(Cl)cc1)c1cc(Cl)c(Cl)cc1Cl | 0.0
* Clc1cccc(Cl)c1Cl | 0.0

Give the logged outcome of this assay for the following compound: COc1ccc2c3c1O[C@H]1[C@@H](O)C=C[C@H]4[C@@H](C2)N(C)CC[C@@]341 1.0

Give the logged outcome of this assay for the following compound: CCCCCCCCCl 0.0

Give the logged outcome of this assay for the following compound: CC(C)OC(=O)Nc1ccccc1 0.0

Give the logged outcome of this assay for the following compound: CCCCCCCCCCCC#N 0.0

Give the logged outcome of this assay for the following compound: COCCl 0.0

Give the logged outcome of this assay for the following compound: c1ccc(-c2ccccc2)cc1 0.0

Entry source: PubChem BioAssay (Tox21)
